Just for reference, patent US20240132513A1 is where these values come from.

- studySystem: GABAA R (α5β2γ2) (Homo sapiens, UniProt P18507+P31644)
- Construct: expressed in transfected cells
- Sequence (P31644 32-462): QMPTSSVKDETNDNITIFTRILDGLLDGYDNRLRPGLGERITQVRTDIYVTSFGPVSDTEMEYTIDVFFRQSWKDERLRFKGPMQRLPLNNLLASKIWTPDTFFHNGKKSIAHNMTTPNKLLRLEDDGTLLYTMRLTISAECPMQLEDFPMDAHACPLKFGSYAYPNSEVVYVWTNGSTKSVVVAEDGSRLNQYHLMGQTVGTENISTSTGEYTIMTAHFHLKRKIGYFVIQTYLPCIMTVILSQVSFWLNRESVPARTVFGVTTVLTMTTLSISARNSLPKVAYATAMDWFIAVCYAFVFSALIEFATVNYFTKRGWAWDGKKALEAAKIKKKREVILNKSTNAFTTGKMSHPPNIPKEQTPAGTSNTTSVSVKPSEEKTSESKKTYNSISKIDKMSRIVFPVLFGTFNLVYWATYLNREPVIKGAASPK
- Sequence (P47870 25-512 partner limits assumed): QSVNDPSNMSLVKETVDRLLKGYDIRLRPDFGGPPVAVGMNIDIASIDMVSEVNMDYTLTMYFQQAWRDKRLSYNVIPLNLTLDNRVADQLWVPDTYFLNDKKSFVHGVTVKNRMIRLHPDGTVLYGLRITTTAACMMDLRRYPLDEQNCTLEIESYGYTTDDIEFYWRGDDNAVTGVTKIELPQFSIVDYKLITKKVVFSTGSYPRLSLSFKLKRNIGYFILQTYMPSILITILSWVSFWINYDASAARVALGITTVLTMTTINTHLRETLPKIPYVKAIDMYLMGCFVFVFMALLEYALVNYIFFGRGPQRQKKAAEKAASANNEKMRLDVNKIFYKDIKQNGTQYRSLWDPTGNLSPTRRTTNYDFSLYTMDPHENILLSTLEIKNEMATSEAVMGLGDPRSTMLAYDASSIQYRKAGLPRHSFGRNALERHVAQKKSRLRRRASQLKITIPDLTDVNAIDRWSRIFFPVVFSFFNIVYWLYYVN
- Sequence (P18507 40-475): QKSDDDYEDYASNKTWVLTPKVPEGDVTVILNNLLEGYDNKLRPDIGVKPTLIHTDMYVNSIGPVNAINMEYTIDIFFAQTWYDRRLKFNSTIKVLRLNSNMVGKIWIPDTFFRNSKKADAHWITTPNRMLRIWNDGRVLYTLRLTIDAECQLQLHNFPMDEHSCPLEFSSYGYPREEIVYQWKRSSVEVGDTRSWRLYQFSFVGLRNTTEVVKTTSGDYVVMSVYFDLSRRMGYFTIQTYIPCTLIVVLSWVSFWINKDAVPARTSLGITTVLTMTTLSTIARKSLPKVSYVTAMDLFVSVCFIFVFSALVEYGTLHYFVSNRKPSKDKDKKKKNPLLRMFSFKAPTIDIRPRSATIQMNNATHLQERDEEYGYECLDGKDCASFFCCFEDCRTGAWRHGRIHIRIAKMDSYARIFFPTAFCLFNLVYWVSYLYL
- assayNotes: Positive allosteric modulator activity: potentiation of EC20 GABA current in oocytes
- Type: cell-based
- conditionSet: read-out: GABA α5 Functional Data: potentiation, @ 100 nM, EC20 GABA; ranges of the column heads
Listed here: items and their measured activation at 0.1 µM.

compound: FC(F)(F)COCc1nc(-c2ncn3c2Cc2cn(CC4CCCO4)nc2-c2cc(Cl)ccc2-3)no1 (stereo not shown)
activation at 0.1 µM: 5 to 20%

compound: Cc1noc(-c2ncn3c2Cc2cn[nH]c2-c2cc(Cl)ccc2-3)n1
activation at 0.1 µM: 20 to 50%

compound: COc1ccc2c(c1)-c1nn(C)cc1Cc1c(-c3nc(C4CCOC4)no3)ncn1-2 (stereo not shown)
activation at 0.1 µM: 20 to 50%

Let us examine a further case.
Which activation at 0.1 µM is reported for this compound? Cn1cc2c(n1)-c1cc(Cl)ccc1-n1cnc(-c3nc(C4CC4)no3)c1C2
20 to 50%

* * *

- studySystem: GABAA R (α5β2γ2) (Homo sapiens, UniProt P18507+P31644)
- Construct: expressed in transfected cells
- assayNotes: Positive allosteric modulator activity: potentiation of EC20 GABA current in oocytes
- Format: cell-based
- conditionSet: read-out: GABA α5 Functional Data: potentiation, @ 100 nM, EC20 GABA; ranges of the column heads
assayReadout: activation at 0.1 µM

Below, 3 molecules whose answers are already recorded.
molecule: CC(C)OCc1noc(-c2ncn3c2Cc2cn(C)nc2-c2cc(Cl)ccc2-3)n1
resultValue: 20 to 50%
--
molecule: FC(F)(F)c1nc(-c2ncn3c2Cc2cn[nH]c2-c2cc(Cl)ccc2-3)no1
resultValue: 5 to 20%
--
molecule: COc1ccc2c(c1)-c1nn(CC3CC3)cc1Cc1c(-c3nc(C(F)(F)F)no3)ncn1-2
resultValue: 5 to 20%

Which activation at 0.1 µM is reported for this molecule? CCn1cc2c(n1)-c1cc(Cl)ccc1-n1cnc(-c3noc(COC(C)(C)C)n3)c1C2
5 to 20%

Which activation at 0.1 µM is reported for this molecule? CC(C)n1cc2c(n1)-c1cc(Cl)ccc1-n1cnc(-c3noc(C4COCCO4)n3)c1C2 (centres unmarked)
20 to 50%

Which activation at 0.1 µM is reported for this molecule? COCc1nc(-c2ncn3c2Cc2cn(CC4CCCO4)nc2-c2cc(Cl)ccc2-3)no1 (centres unmarked)
5 to 20%

Which activation at 0.1 µM is reported for this molecule? CC(C)c1noc(-c2ncn3c2Cc2cn(CC4CCOC4)nc2-c2cc(Cl)ccc2-3)n1 (centres unmarked)
5 to 20%

Which activation at 0.1 µM is reported for this molecule? COC(C)(C)c1nc(-c2ncn3c2Cc2cn(CC4CCCO4)nc2-c2cc(Cl)ccc2-3)no1 (centres unmarked)
5 to 20%

Which activation at 0.1 µM is reported for this molecule? COC(C)(C)c1noc(-c2ncn3c2Cc2cn(CC4CCCO4)nc2-c2cc(Cl)ccc2-3)n1 (centres unmarked)
20 to 50%

* * *

- studySystem: α5β3γ2 GABAA R (Homo sapiens, UniProt P18507+P31644)
- Sequence (P31644 32-462): as the sequence (P31644 32-462) above
- Sequence (P28472 26-473 partner): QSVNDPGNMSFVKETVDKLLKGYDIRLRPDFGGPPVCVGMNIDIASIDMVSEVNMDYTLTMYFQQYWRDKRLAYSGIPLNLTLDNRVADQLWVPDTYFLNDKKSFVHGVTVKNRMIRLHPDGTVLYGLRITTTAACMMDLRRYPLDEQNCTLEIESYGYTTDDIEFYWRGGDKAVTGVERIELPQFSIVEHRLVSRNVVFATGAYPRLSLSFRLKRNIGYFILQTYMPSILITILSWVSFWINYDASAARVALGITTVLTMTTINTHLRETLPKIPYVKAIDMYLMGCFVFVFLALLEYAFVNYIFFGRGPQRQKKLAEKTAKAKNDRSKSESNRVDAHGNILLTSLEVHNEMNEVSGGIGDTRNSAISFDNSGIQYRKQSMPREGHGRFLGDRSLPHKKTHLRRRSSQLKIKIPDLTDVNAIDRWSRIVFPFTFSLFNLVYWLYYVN
- Sequence (P18507 40-475): as the sequence (P18507 40-475) above
- assayNotes: Binding activity on GABAA R: inhibition of [3H]Ro15-1788 binding, α5 containing receptor
- conditionSet: ranges of the column heads; [3H]Ro15-1788, Ltk cell membranes
- Procedure: Tissue culture and Membrane Preparation: The binding was performed on Ltk cells stably expressing GABAA R: […], α2β3γ2, α3β3γ2 and α5β3γ2 (provided by Merck Co., NJ, USA). Cells were seeded in 100 mm culture plates in DMEM/F12 medium containing 10% serum and antibiotics in 5% CO2 and allowed to grow for 1-2 days. […] Protein content was determined using BCA assay (Bio-Rad Labs, Reinach, Switzerland) with Bovine Serum Albumin (Sigma Aldrich, St. Louis, MO, USA) as the standard. […]
pKi: −log10 of the molar value.
Listed here: items and their measured pKi.

Which pKi is reported for this compound? CCn1cc2c(n1)-c1cc(OC)ccc1-n1cnc(-c3noc(C4(OC)CC4)n3)c1C2
> 7.00

* * *

Listed here: items and their measured activation at 0.1 µM.
- studySystem: GABAA R (α5β2γ2) (Homo sapiens, UniProt P18507+P31644)
- Construct: expressed in transfected cells
- assayNotes: Positive allosteric modulator activity: potentiation of EC20 GABA current in oocytes
- Assay type: cell-based
- conditionSet: read-out: GABA α5 Functional Data: potentiation, @ 100 nM, EC20 GABA; ranges of the column heads

molecule: Cn1cc2c(n1)-c1cc(Cl)ccc1-n1cnc(-c3cnn(Cc4ccccn4)c3)c1C2 [Compound 190]
assayReadout: activation at 0.1 µM
resultValue: 20 to 50%
--
molecule: COc1ccc2c(c1)-c1nn(CC3CCCO3)cc1Cc1c(-c3nnc(C(F)(F)F)o3)ncn1-2 (stereo not drawn) [Compound 302]
assayReadout: activation at 0.1 µM
resultValue: 5 to 20%
--
molecule: CCOCc1nc(-c2ncn3c2Cc2cn(C)nc2-c2cc(OC)ccc2-3)no1 [Compound 137]
assayReadout: activation at 0.1 µM
resultValue: 20 to 50%
--
molecule: Cn1cc2c(n1)-c1cc(Cl)ccc1-n1cnc(-c3cnn(CC4CCCO4)c3)c1C2 (stereo not drawn) [Compound 222]
assayReadout: activation at 0.1 µM
resultValue: 5 to 20%
--
molecule: COc1ccc2c(c1)-c1nn(Cc3ccc(F)cc3)cc1Cc1c(-c3nc(C)no3)ncn1-2 [Compound 23]
assayReadout: activation at 0.1 µM
resultValue: 5 to 20%

Which activation at 0.1 µM is reported for this molecule? COc1ccc2c(c1)-c1nn(CC3CC3)cc1Cc1c(-c3nc(C4CC4)no3)ncn1-2 [Compound 171]
5 to 20%

* * *

Listed here: items and their measured activation at 0.1 µM.
- studySystem: GABAA R (α5β2γ2) (Homo sapiens, UniProt P18507+P31644)
- Construct: expressed in transfected cells
- assayNotes: Positive allosteric modulator activity: potentiation of EC20 GABA current in oocytes
- Type: cell-based
- conditionSet: read-out: GABA α5 Functional Data: potentiation, @ 100 nM, EC20 GABA; ranges of the column heads

Below, 3 molecules whose answers are already recorded.
molecule: COc1ccc2c(c1)-c1nn(CC3CCOC3)cc1Cc1c(-c3nc(C4CC4)no3)ncn1-2 (centres unmarked)
activation at 0.1 µM: 20 to 50%
//
molecule: COc1ccc2c(c1)-c1nn(CC3CCCO3)cc1Cc1c(-c3nc(C(C)C)no3)ncn1-2 (centres unmarked)
activation at 0.1 µM: 5 to 20%
//
molecule: COc1ccc(C#Cc2ncn3c2Cc2cn[nH]c2-c2cc(Cl)ccc2-3)cn1
activation at 0.1 µM: 5 to 20%

Which activation at 0.1 µM is reported for this molecule? Clc1ccc2c(c1)-c1nn(CC3CCCO3)cc1Cc1c(-c3nc(C4CCOC4)no3)ncn1-2 (centres unmarked)
5 to 20%

Which activation at 0.1 µM is reported for this molecule? COCc1noc(-c2ncn3c2Cc2cn(CC4CCCO4)nc2-c2cc(Cl)ccc2-3)n1 (centres unmarked)
> 50%

* * *

- studySystem: GABAA R (α5β2γ2) (Homo sapiens, UniProt P18507+P31644)
- Construct: expressed in transfected cells
- assayNotes: Positive allosteric modulator activity: potentiation of EC20 GABA current in oocytes
- Type: cell-based
- conditionSet: read-out: GABA α5 Functional Data: potentiation, @ 100 nM, EC20 GABA; ranges of the column heads
- Procedure: On day 1, 1 ng/32 nL of GABAA α5β2γ2 cDNA was injected into one oocyte. Test starts on day 2. The cDNA injected to the oocytes was a mix of alpha, beta and gamma, their ratio is 1:1:10 (by weight) and the total weight of the mixed 3 subunits to be injected in one oocyte was 1 ng in 32 nl volume. The injected oocytes can also be tested on day 3. In such case, the cDNA amount injected to the oocytes should be reduced by 20%. […]
Listed here: items and their measured activation at 0.1 µM.

Below, 5 compounds whose answers are already recorded.
lineNotation: CC(C)c1nc(-c2ncn3c2Cc2cn(C(C)C)nc2-c2cc(Cl)ccc2-3)no1
assayReadout: activation at 0.1 µM
resultValue: 20 to 50%
--
lineNotation: Cn1cc2c(n1)-c1cc(Cl)ccc1-n1cnc(-c3noc(C4(F)CC4)n3)c1C2
assayReadout: activation at 0.1 µM
resultValue: 20 to 50%
--
lineNotation: CCn1cc2c(n1)-c1cc(OC)ccc1-n1cnc(-c3noc(C4CC4)n3)c1C2
assayReadout: activation at 0.1 µM
resultValue: 20 to 50%
--
lineNotation: COCc1coc(-c2ncn3c2Cc2cn(C)nc2-c2cc(OC)ccc2-3)n1
assayReadout: activation at 0.1 µM
resultValue: 5 to 20%
--
lineNotation: Cc1noc(-c2ncn3c2Cc2cn(C)nc2-c2cc(Cl)ccc2-3)n1
assayReadout: activation at 0.1 µM
resultValue: 20 to 50%

Let us examine a further case.
Which activation at 0.1 µM is reported for this compound? COc1ccc2c(c1)-c1[nH]ncc1Cc1c(-c3nc(C(C)C)no3)ncn1-2
20 to 50%
